- STUDY TARGET: hCGRP receptor (CALCRL:RAMP1) (Homo sapiens, UniProt O60894+Q16602)
- Construct: host or cells: GeneBLAzer CALCRL:RAMP1-CRE-bla Freestyle 293F
- Sequence (O60894 27-148, one chain of several): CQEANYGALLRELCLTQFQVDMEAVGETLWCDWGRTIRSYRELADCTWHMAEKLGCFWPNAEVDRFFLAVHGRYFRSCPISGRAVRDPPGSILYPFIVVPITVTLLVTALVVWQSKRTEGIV
- ASSAY TEXT: CGRP receptor antagonist activity measured by cAMP assay (HTRF)
- Type: cell-based
- CONDITION SUMMARY: % MPE: percent of the maximal possible effect; agonist human α-CGRP; read-out: hCGRP-R Efficacy Antag (%) Ave
Numbered stars: 1 amine (or outer) side, 2 acyl side, 3 side chain; on linkers, the order of the positions; unused ones are H or OH. Bridge positions count the residues as written; N and C are the ends. Square brackets hold non-standard residues; d marks the D form. Peptide text beside a SMILES is read from it. * marks the point of attachment. Phe(3-CONH2) = NC(=O)c1cccc(C[C@H](N)C(=O)O)c1; Phe(2-CONH2) = NC(=O)c1ccccc1C[C@H](N)C(=O)O; X15 = N#CN=C(N)NCCC[C@H](N[*:1])C(=O)[*:2]; Phe(4-NH2) = Nc1ccc(C[C@H](N)C(=O)O)cc1; Picolinoyl(5-F) = O=C(c1ccc(F)cn1)*; Orn(iPr) = CC(C)NCCC[C@H](N)C(=O)O; Oxazole2carbonyl = O=C(c1ncco1)*; 3Pal = N[C@@H](Cc1cccnc1)C(=O)O; Pyrrole2CO = O=C(c1ccc[nH]1)*; Picolinoyl = O=C(c1ccccn1)*; ΔPro = O=C(O)[C@@H]1C=CCN1; X2 = Cc1n[nH]c(C(=O)*)n1
MEASURE: Emax (%)
Enter your answer as a number in %; do not include the unit.

COMPOUND: CC(C)[C@@H]1NC(=O)[C@H](CC(=O)O)NC(=O)[C@H](CCCNC(=N)N)NC(=O)[C@@H](NC(=O)[C@H](Cc2ccc(O)cc2)NC(=O)[C@H](NC(=O)c2ccc[nH]2)C(C)C)CSSC[C@@H](C(=O)N[C@@H](Cc2cccnc2)C(N)=O)NC(=O)[C@H](Cc2ccccc2)NC(=O)[C@@H]2CCCN2C(=O)CNC1=O [Compound 49] (Pyrrole2CO-[dV]YCRDVGPFC[3Pal]-NH2; disulfide 3-10)
READOUT VALUE: 100

What Emax appears in the records for this compound with hCGRP receptor (CALCRL:RAMP1) (Homo sapiens, UniProt O60894+Q16602)? CC(C)[C@@H]1NC(=O)[C@H](CC(=O)O)NC(=O)[C@H](CCCNC(N)=NC#N)NC(=O)[C@@H](NC(=O)[C@H](Cc2ccc(O)cc2)NC(=O)[C@H](NC(=O)c2ccccn2)C(C)C)CSSC[C@@H](C(=O)N[C@@H](Cc2cccnc2)C(N)=O)NC(=O)[C@H](Cc2ccccc2)NC(=O)[C@@H]2CCCN2C(=O)CNC1=O [Compound 26] (Picolinoyl-[dV]YC[X15]DVGPFC[3Pal]-NH2; disulfide 3-10) 100

Request body: readout Emax, system hCGRP receptor (CALCRL:RAMP1) (Homo sapiens, UniProt O60894+Q16602), query CC(C)NCCC[C@@H]1NC(=O)[C@@H](NC(=O)[C@H](Cc2ccccc2C(N)=O)NC(=O)[C@H](NC(=O)c2ncco2)C(C)C)CSSC[C@@H](C(=O)N[C@@H](Cc2cccnc2)C(N)=O)NC(=O)[C@H](Cc2ccc(N)cc2)NC(=O)[C@@H]2C=CCN2C(=O)CNC(=O)[C@H](C(C)C)NC(=O)[C@H](CC(=O)O)NC1=O [Compound 59] (Oxazole2carbonyl-[dV][Phe(2-CONH2)]C[Orn(iPr)]DVG[ΔPro][Phe(4-NH2)]C[3Pal]-NH2; disulfide 3-10) . Return the value. 100

Missing value: Emax, hCGRP receptor (CALCRL:RAMP1) (Homo sapiens, UniProt O60894+Q16602), entry Cc1n[nH]c(C(=O)N[C@@H](C(=O)N[C@@H](Cc2ccc(O)cc2)C(=O)N[C@H]2CSSC[C@@H](C(=O)N[C@@H](Cc3cccnc3)C(N)=O)NC(=O)[C@H](Cc3ccccc3)NC(=O)[C@@H]3CCCN3C(=O)CNC(=O)[C@H](C(C)C)NC(=O)[C@H](CC(=O)O)NC(=O)[C@H](CCCNC(=N)N)NC2=O)C(C)C)n1 [Compound 48] (X2-[dV]YCRDVGPFC[3Pal]-NH2; disulfide 3-10) . Fill in? 100

Item CC(C)NCCC[C@@H]1NC(=O)[C@@H](NC(=O)[C@H](Cc2ccc(O)cc2)NC(=O)[C@H](NC(=O)c2ccc(F)cn2)C(C)C)CSSC[C@@H](C(=O)N[C@@H](Cc2cccnc2)C(N)=O)NC(=O)[C@H](Cc2cccc(C(N)=O)c2)NC(=O)[C@@H]2C=CCN2C(=O)CNC(=O)[C@H](C(C)C)NC(=O)[C@H](CC(=O)O)NC1=O [Compound 68] ({Picolinoyl(5-F)}-[dV]YC[Orn(iPr)]DVG[ΔPro][Phe(3-CONH2)]C[3Pal]-NH2; disulfide 3-10) with hCGRP receptor (CALCRL:RAMP1) (Homo sapiens, UniProt O60894+Q16602) - Emax? 101

* * *

- STUDY TARGET: hAM2 receptor (CALCRL:RAMP3) (Homo sapiens, UniProt O60896+Q16602)
- Construct: expressed in transfected cells; host or cells: GeneBLAzer CALCRL:RAMP3-CRE-bla Freestyle 293F
- Sequence (Q16602 23-461): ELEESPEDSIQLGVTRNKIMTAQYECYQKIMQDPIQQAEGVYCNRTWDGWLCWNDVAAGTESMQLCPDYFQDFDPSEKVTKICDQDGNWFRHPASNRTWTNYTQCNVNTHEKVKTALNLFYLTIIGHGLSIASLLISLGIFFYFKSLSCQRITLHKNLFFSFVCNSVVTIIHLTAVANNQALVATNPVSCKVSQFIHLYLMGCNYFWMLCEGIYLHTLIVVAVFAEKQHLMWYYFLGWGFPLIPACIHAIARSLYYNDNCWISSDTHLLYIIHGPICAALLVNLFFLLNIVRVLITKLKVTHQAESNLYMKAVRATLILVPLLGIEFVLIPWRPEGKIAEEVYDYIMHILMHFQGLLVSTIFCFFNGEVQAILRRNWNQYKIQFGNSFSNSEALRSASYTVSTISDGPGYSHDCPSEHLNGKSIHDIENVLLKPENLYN
- Sequence (O60896 24-148): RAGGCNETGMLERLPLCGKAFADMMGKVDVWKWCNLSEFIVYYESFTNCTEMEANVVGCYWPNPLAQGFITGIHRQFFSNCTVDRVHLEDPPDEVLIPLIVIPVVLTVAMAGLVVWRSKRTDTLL
- ASSAY TEXT: AM2 receptor antagonist activity measured by cAMP assay (HTRF)
- Format: cell-based
- CONDITION SUMMARY: GeneBLAzer CALCRL:RAMP3-CRE-bla Freestyle 293F cells; agonist human adrenomedullin; read-out: hAM2-R IC50 Ave
Bridge positions count the residues as written; N and C are the ends. Square brackets hold non-standard residues; d marks the D form. Peptide text beside a SMILES is read from it. * marks the point of attachment. Phe(2-CONH2) = NC(=O)c1ccccc1C[C@H](N)C(=O)O; Picolinoyl(5-F) = O=C(c1ccc(F)cn1)*; Orn(iPr) = CC(C)NCCC[C@H](N)C(=O)O; Orn(Me2) = CN(C)CCC[C@H](N)C(=O)O; Oxazole2carbonyl = O=C(c1ncco1)*; 3Pal = N[C@@H](Cc1cccnc1)C(=O)O; Orn = NCCC[C@H](N)C(=O)O; X1 = O=C(c1ncccc1F)*
MEASURE: IC50 (nM)
Write down the numeric answer in nM and omit the unit.

COMPOUND: CC(C)[C@@H]1NC(=O)[C@H](CC(=O)O)NC(=O)[C@H](CCCN(C)C)NC(=O)[C@@H](NC(=O)[C@H](Cc2ccc(O)cc2)NC(=O)[C@H](NC(=O)c2ncccc2F)C(C)C)CSSC[C@@H](C(=O)N[C@@H](Cc2cccnc2)C(N)=O)NC(=O)[C@H](Cc2ccccc2)NC(=O)[C@@H]2CCCN2C(=O)CNC1=O [Compound 46] (X1-[dV]YC[Orn(Me2)]DVGPFC[3Pal]-NH2; disulfide 3-10)
MEASUREMENT UNITS: nM
IC50: 184

COMPOUND: CC(C)[C@@H]1NC(=O)[C@H](CC(=O)O)NC(=O)[C@H](CCCN)NC(=O)[C@@H](NC(=O)[C@H](Cc2ccc(O)cc2)NC(=O)[C@H](NC(=O)c2ccc(F)cn2)C(C)C)CSSC[C@@H](C(=O)N[C@@H](Cc2cccnc2)C(N)=O)NC(=O)[C@H](Cc2ccccc2)NC(=O)[C@@H]2CCCN2C(=O)CNC1=O [Compound 12] ({Picolinoyl(5-F)}-[dV]YC[Orn]DVGPFC[3Pal]-NH2; disulfide 3-10)
MEASUREMENT UNITS: nM
IC50: 18

Next:
Notebook: pull reported IC50 for hAM2 receptor (CALCRL:RAMP3) (Homo sapiens, UniProt O60896+Q16602), entry CC(C)NCCC[C@@H]1NC(=O)[C@@H](NC(=O)[C@H](Cc2ccccc2C(N)=O)NC(=O)[C@H](NC(=O)c2ncco2)C(C)C)CSSC[C@@H](C(=O)N[C@@H](Cc2cccnc2)C(N)=O)NC(=O)[C@H](Cc2ccccc2)NC(=O)[C@@H]2CCCN2C(=O)CNC(=O)[C@H](C(C)C)NC(=O)[C@H](CC(=O)O)NC1=O [Compound 30] (Oxazole2carbonyl-[dV][Phe(2-CONH2)]C[Orn(iPr)]DVGPFC[3Pal]-NH2; disulfide 3-10) 700

* * *

Below is a list of entries, each paired with its recorded selectivity ratio CGRP/AM2 value.
- STUDY TARGET: hAM2 receptor (CALCRL:RAMP3) (Homo sapiens, UniProt O60896+Q16602)
- Construct: expressed in transfected cells; host or cells: GeneBLAzer CALCRL:RAMP3-CRE-bla Freestyle 293F
- ASSAY TEXT: AM2 receptor antagonist activity measured by cAMP assay (HTRF)
- Assay type: cell-based
- CONDITION SUMMARY: selectivity ratio for hCGRP over hAM2, calculated from the IC50 values
Numbered stars: 1 amine (or outer) side, 2 acyl side, 3 side chain; on linkers, the order of the positions; unused ones are H or OH. Bridge positions count the residues as written; N and C are the ends. Square brackets hold non-standard residues; d marks the D form. Peptide text beside a SMILES is read from it. * marks the point of attachment. Phe(2-CONH2) = NC(=O)c1ccccc1C[C@H](N)C(=O)O; X5 = O=C([C@H](Cc1ccc(CO)cc1)N[*:1])[*:2]; Orn(iPr) = CC(C)NCCC[C@H](N)C(=O)O; Oxazole2carbonyl = O=C(c1ncco1)*; 3Pal = N[C@@H](Cc1cccnc1)C(=O)O; Picolinoyl = O=C(c1ccccn1)*; ΔPro = O=C(O)[C@@H]1C=CCN1
Field format: numeric only.

COMPOUND: CC(C)NCCC[C@@H]1NC(=O)[C@@H](NC(=O)[C@H](Cc2ccccc2C(N)=O)NC(=O)[C@H](NC(=O)c2ncco2)C(C)C)CSSC[C@@H](C(=O)N[C@@H](Cc2cccnc2)C(N)=O)NC(=O)[C@H](Cc2ccc(CO)cc2)NC(=O)[C@@H]2CCCN2C(=O)CNC(=O)[C@H](C(C)C)NC(=O)[C@H](CC(=O)O)NC1=O [Compound 64] (Oxazole2carbonyl-[dV][Phe(2-CONH2)]C[Orn(iPr)]DVGP[X5]C[3Pal]-NH2; disulfide 3-10)
MEASURE: selectivity ratio CGRP/AM2
READOUT VALUE: 10594

Next item in the queue.
Query: selectivity ratio CGRP/AM2; subject: CC(C)NCCC[C@@H]1NC(=O)[C@@H](NC(=O)[C@H](Cc2ccc(O)cc2)NC(=O)[C@H](NC(=O)c2ccccn2)C(C)C)CSSC[C@@H](C(=O)N[C@@H](Cc2cccnc2)C(N)=O)NC(=O)[C@H](Cc2ccc(CO)cc2)NC(=O)[C@@H]2C=CCN2C(=O)CNC(=O)[C@H](C(C)C)NC(=O)[C@H](CC(=O)O)NC1=O [Compound 69] (Picolinoyl-[dV]YC[Orn(iPr)]DVG[ΔPro][X5]C[3Pal]-NH2; disulfide 3-10) 497
